# Test system: cyno B7-H3
# Sequence (as listed by the source): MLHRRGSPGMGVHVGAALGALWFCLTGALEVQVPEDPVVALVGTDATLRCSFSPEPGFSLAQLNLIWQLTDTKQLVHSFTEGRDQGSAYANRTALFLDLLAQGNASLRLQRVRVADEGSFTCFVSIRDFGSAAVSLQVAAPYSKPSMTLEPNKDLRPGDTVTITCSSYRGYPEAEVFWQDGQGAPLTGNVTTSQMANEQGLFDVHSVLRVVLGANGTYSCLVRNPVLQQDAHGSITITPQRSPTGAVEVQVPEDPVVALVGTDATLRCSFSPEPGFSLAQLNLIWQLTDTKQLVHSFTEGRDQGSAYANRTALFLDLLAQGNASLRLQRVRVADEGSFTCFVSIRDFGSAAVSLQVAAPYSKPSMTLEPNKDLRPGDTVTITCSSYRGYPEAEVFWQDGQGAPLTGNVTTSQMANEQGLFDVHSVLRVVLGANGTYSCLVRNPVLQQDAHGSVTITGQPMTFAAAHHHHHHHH
# protocolDescription: Biacore T200 SPR binding kinetics, mAb capture, soluble ECD of cyno B7-H3
# Set-up: species or system cynomolgus monkey
# conditionLabel: 1:1 binding model
# Procedure: [The source words this procedure for another species and reports this species under the same test.] The binding affinity of the purified anti-B7-H3 monoclonal antibodies was determined by surface […]. […] The binding kinetics were derived from SPR measurements using a Biacore T200 instrument and a mAb capture approach (as described in the materials and methods below). Biacore T200 SPR instruments were used to measure the binding kinetics of human B7-H3 (4Ig-B7-H3 variant) (analyte) binding to various mAbs (ligands). […]
measure: ka (1/Ms) cynoB7-H3 (M⁻¹ s⁻¹)

>>> testvalue("Ab5: murine anti-B7-H3 mAbs; mouse hybridoma derived (antibody, V domains shown) VH: QVQLQQPGDELVKPGASVKLSCKTSGYTFTTDWMHWVKQRPGQGLEWIGMIHPNSGTTNYNEKFKSKAALTVDKSSSTACMQLSSLTSEDSAVYYCARSYWKWYFDVWGTGTTVTVSS VL: QIVLTQSPAIMSASLGEEITLTCSASSSVSYMHWYQQKSGTSPKLLIYSTSNLASGVPSRFSGSGSGTFYSLTISSVEAEDSADYYCHQWTSYMYTFGGGTKLEIK")
"1.4e+06"

Every entry's value here was drawn from patent US20200338209A1.
